B1: Osa-1-4 twister ribozyme (parent)
chain: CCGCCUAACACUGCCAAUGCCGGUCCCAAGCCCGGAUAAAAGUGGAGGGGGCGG

Variants of: B1
Assay: self-cleavage, relative activity (ratio to wild type); higher = more cleavage; co-transcriptional
Give self-cleavage for every item shown.
One number for each entry.

Known results for variants:
CCGCCUACCACUGCCAAUGCCGGUCCCAAGCCCGGAUAAACGUGGAGGGGGCGG [A41C A8C] | 0.09
CCGCCUAACACUGCCAAUGCCGGUCCCAAGCCCGGAGGAAAGUGGAGGGGGCGG [A38G U37G] | 1
CCGCCUAACAGUGCCAAUGCCGGUCCCAAGCCCGGGUAAAAGUGGAGGGGGCGG [A36G C11G] | 0.73
CCGCCUAAGACUGCCACUGCCGGUCCCAAGCCCGGAUAAAAGUGGAGGGGGCGG [A17C C9G] | 0.12
CCGCCUAACACUGCCAAUGCCGGUCCCAAGCCCGGAUAACAGUGGGGGGGGCGG [A40C A46G] | 0.02

I'm hoping you can list self-cleavage for every variant here, please.
1. CCGCCUAGCACUGCCAAUGACGGUCCCAAGCCCGGAUAAAAGUGGAGGGGGCGG [A8G C20A]
2. CCGCCUAACGCUGCCAAUGCCGGUCCCAAGCCCGGAUAAAGGUGGAGGGGGCGG [A10G A41G]
3. CCGCCUAACACUGCCAAUGCCGGUCCAAAGCCCGGAUAAAAGUGGAGGGGGCGU [C27A G54U]
4. CCGCCUAACACUGCCAAUGUCGGUCCCAAGCCCGGAUAAAAGUGAAGGGGGCGG [C20U G45A]
5. CCGCCUAACACUGCCAAUGCCGGUCCCAACCCCGGAUAAAAGUGGAGGAGGCGG [G30C G49A]
6. CCGCCUAACACUGCCAAUGCCGGUCCUAAGCCGGGAUAAAAGUGGAGGGGGCGG [C27U C33G]
7. CCGCCUAACACUGCCAAUGCCGGUCCCAAGCCCGGAUAAGAGUGGAGGGGGCUG [A40G G53U]
8. CCGCCUAACACUGCCAAUGCCGGUCUCAAGCCUGGAUAAAAGUGGAGGGGGCGG [C26U C33U]

1: 0.49; 2: 0.2; 3: 0.35; 4: 0.35; 5: 0.02; 6: 0.05; 7: 0.12; 8: 0.32

I'm hoping you can list self-cleavage for every variant here, please.
1. CCGCCUAACACUGCCAAUGCCGAACCCAAGCCCGGAUAAAAGUGGAGGGGGCGG [G23A U24A]
2. CCGCCUAACACUGCCAAUACCGGUCCCAAGCCCAGAUAAAAGUGGAGGGGGCGG [G19A G34A]
3. CCGCCUAACACUGCCAAUGUCGGUCCCAAGCCCGGAUAAAAGUGGACGGGGCGG [C20U G47C]
4. CCGCCUAACACUGCCAAUGCCGGUCCCAUGCCCGGAUAAAAGUGGAGGGGGAGG [A29U C52A]
5. CCGCCUAACACUGCCAAUGCCGCUCCCAAGCCCGGAUAUAAGUGGAGGGGGCGG [A39U G23C]

[0.09, 0.61, 0.15, 0.08, 0.06]
